Values from patent US12428423B2

Target: CDK6/cyclin D1 (Homo sapiens (Human))
Sequence (Q00534 whole entry): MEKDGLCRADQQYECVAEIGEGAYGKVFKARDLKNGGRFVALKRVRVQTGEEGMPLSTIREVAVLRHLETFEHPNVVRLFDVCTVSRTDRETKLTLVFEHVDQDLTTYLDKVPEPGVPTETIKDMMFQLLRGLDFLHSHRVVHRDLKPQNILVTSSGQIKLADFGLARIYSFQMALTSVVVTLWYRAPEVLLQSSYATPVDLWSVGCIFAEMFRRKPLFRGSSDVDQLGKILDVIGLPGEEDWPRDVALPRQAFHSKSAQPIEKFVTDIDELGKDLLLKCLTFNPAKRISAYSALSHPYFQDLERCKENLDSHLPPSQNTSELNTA
Sequence (P24385 whole entry partner): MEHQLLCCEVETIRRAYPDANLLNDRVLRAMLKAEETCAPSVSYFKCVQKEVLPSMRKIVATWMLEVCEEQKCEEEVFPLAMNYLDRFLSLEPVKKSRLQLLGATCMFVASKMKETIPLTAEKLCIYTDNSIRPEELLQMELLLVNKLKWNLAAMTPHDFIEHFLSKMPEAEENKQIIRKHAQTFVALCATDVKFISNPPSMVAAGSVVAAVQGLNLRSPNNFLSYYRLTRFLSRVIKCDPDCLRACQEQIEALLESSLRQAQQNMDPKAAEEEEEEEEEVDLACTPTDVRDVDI
Protocol Details: Biochemical kinase inhibitory assay, CDK6/cyclin D1
Test Parameters: in the presence of 10 μM ATP
pIC50: −log10 of the molar value.
This section presents compounds with their documented pIC50 values.

Worked cases, pIC50 given:
| Compound | Result |
| --- | --- |
| c1cc(Nc2ncc3ccc4ncn(C5CC5)c4c3n2)ncc1N1CCNCC1 [Compound I-47] | 8.00 to 8.70 |
| CCn1cnc2ccc3cnc(Nc4ccc(N5CCN(C)CC5)cn4)nc3c21 [Compound I-43] | 7.30 to 8.00 |
| CC(C)n1cnc2ccc3cnc(Nc4ccc(N5CCOCC5)cn4)nc3c21 [Compound I-23] | > 8.70 |
| c1cc(Nc2ncc3ccc4ncn(C5CCC5)c4c3n2)ncc1N1CCNCC1 [Compound I-52] | 7.30 to 8.00 |
| Cc1cc(Nc2ncc3ccc4ncn(C5CCC5)c4c3n2)ncc1N1CCOCC1 [Compound I-56] | 7.30 to 8.00 |
| CC(C)n1cnc2ccc3cnc(Nc4ccc(N5CCNC(C)(C)C5)cn4)nc3c21 [Compound I-11] | 8.00 to 8.70 |
| Cc1cc(Nc2ncc3ccc4ncn(C(C)C)c4c3n2)ncc1N1CCOCC1 [Compound I-24] | 8.00 to 8.70 |

Any idea what pIC50 was measured for CC(C)n1cnc2ccc3cnc(Nc4ccc(N5CCC(N)C5)cn4)nc3c21 (centres unmarked) [Compound I-22] ?
7.30 to 8.00
